- Tested On: full-length human PKCι (Homo sapiens, UniProt P41743)
- Construct: Recombinant, full-length human PKCι expressed in Sf21 insect cells is also commercially available; purchased; host or cells: Sf21 insect cells
- Sequence (P41743 whole entry): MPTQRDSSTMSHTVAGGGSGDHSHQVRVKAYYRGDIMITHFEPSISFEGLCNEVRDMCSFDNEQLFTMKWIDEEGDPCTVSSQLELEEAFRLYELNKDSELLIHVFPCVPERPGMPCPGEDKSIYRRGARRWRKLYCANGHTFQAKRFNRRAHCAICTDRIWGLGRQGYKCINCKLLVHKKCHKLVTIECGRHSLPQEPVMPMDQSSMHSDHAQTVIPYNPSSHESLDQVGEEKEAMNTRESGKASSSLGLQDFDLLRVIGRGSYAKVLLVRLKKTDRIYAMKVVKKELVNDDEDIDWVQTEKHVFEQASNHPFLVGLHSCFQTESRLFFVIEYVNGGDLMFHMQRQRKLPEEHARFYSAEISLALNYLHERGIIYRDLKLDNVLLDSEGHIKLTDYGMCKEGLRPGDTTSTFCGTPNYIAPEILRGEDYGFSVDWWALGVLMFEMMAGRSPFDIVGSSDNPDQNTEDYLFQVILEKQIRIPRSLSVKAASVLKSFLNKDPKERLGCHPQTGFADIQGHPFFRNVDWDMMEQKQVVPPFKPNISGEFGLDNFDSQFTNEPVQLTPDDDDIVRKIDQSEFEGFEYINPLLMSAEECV
- Procedure Details: PKCι IC50 IMAP fluorescence polarisation assay, full-length enzyme
- Type: biochemical
- Run Conditions: full length PKCi at 15 μM ATP; read-out: IC50 in IMAP assay against full length PKCi (Activity)
molecules and their reported IC50

{"Structure As Smiles": "CN(C)CC(=O)N1CCc2c(sc3nc(-c4ccncc4)nc(NCCN)c23)C1", "IC50": "10 to 40 µM"}
{"Structure As Smiles": "N[C@H](CNc1nc(-c2ccncc2)nc2sc3c(c12)CCCC3)Cc1ccccc1O", "IC50": "< 0.1 µM"}
{"Structure As Smiles": "CCCCC(=O)N1CCc2c(sc3nc(-c4ccncc4)nc(NCCN)c23)C1", "IC50": "10 to 40 µM"}

What value of IC50 has been recorded for this entry: c1cc(-c2nc(O[C@@H]3CCNC3)c3c4c(sc3n2)CCCC4)ccn1
1 to 10 µM

What value of IC50 has been recorded for this entry: COc1ccccc1C[C@H](N)CNc1nc(-c2ccncc2)nc2sc3c(c12)CCSC3
10 to 40 µM

What value of IC50 has been recorded for this entry: N[C@@H](CNc1nc(-c2ccncc2)nc2sc3c(c12)CCCC3)Cc1cccc2ccccc12
1 to 10 µM

Provenance of the data: patent US10183950B2
